Consider the following molecules; for each one, report its MIC.
Tested on: K. pneumoniae NVT1001 and its ΔompK35/36 and/or ΔramR mutants
Assay: Etest MIC, OmpK35/36 loss and AcrAB-TolC overexpression (ΔramR) strains (Table 6)
Assay type: cell-based, Klebsiella pneumoniae
Conditions: Klebsiella pneumoniae, WT, NVT1001, read-out: MIC
Reply with just the number (in µg/mL).

For the molecule `CN(C)c1ccc(O)c2c1C[C@H]1C[C@H]3[C@H](N(C)C)C(O)=C(C(N)=O)C(=O)[C@@]3(O)C(O)=C1C2=O` , give its reported MIC. 4

For the molecule `CC(C)(O/N=C(\C(=O)N[C@@H]1C(=O)N2C(C(=O)[O-])=C(C[n+]3ccccc3)CS[C@H]12)c1csc(N)n1)C(=O)O` , give its reported MIC. 0.25

For the molecule `COc1cc(Cc2cnc(N)nc2N)cc(OC)c1OC` , give its reported MIC. 2

For the molecule `CCn1cc(C(=O)O)c(=O)c2cc(F)c(N3CCNCC3)cc21` , give its reported MIC. 0.25

For the molecule `NC[C@H]1O[C@H](O[C@H]2[C@H](O)[C@@H](O[C@H]3O[C@H](CO)[C@@H](O)[C@H](N)[C@H]3O)[C@H](N)C[C@@H]2N)[C@H](O)[C@@H](O)[C@@H]1O` , give its reported MIC. 2

For the molecule `[H]/N=C(/N)N[C@H]1[C@H](O)[C@@H](O)[C@H](O[C@@H]2O[C@@H](C)[C@](O)(C=O)[C@H]2O[C@@H]2O[C@@H](CO)[C@H](O)[C@@H](O)[C@@H]2NC)[C@@H](N/C(N)=N\[H])[C@@H]1O` , give its reported MIC. 2

For the molecule `CC(=O)OCC1=C(C(=O)O)N2C(=O)[C@@H](NC(=O)Cc3cccs3)[C@H]2SC1` , give its reported MIC. 8

For the molecule `C[C@@H](O)[C@H]1C(=O)N2C(C(=O)O)=C(S[C@@H]3CN[C@H](CNS(N)(=O)=O)C3)[C@H](C)[C@H]12` , give its reported MIC. 0.06

For the molecule `C[C@@H]1O[C@@H]1P(=O)(O)O` , give its reported MIC. 128

For the molecule `CN(C)c1cc(NC(=O)CNC(C)(C)C)c(O)c2c1C[C@H]1C[C@H]3[C@H](N(C)C)C(O)=C(C(N)=O)C(=O)[C@@]3(O)C(O)=C1C2=O` , give its reported MIC. 1

For the molecule `C[C@H]1c2cccc(O)c2C(=O)C2=C(O)[C@]3(O)C(=O)C(C(N)=O)=C(O)[C@@H](N(C)C)[C@@H]3[C@@H](O)[C@@H]21` , give its reported MIC. 4

For the molecule `CN[C@@H]1[C@H](O)[C@H](NC)[C@H]2O[C@@]3(O)C(=O)C[C@@H](C)O[C@H]3O[C@@H]2[C@H]1O` , give its reported MIC. 16

For the molecule CC1COc2c(N3CCN(C)CC3)c(F)cc3c(=O)c(C(=O)O)cn1c23 (stereo not shown) , give its reported MIC. 0.25

====

Consider the following compounds; for each one, report its MIC.
System: K. pneumoniae NVT1001 and ΔramR strains with tet resistance gene plasmids
Assay: Etest MIC of tetracyclines, AcrAB-TolC overexpression (ΔramR) and/or tet resistance gene (Table 14)
Type: cell-based, Klebsiella pneumoniae
Conditions: Klebsiella pneumoniae, NVT1001, Tet(D) on pACYC177; read-out: MIC
Reply with just the number (in µg/mL).

For the compound `C[C@H]1c2cccc(O)c2C(=O)C2=C(O)[C@]3(O)C(=O)C(C(N)=O)=C(O)[C@@H](N(C)C)[C@@H]3[C@@H](O)[C@@H]21` , give its reported MIC. 128

For the compound `CN(C)c1cc(NC(=O)CNC(C)(C)C)c(O)c2c1C[C@H]1C[C@H]3[C@H](N(C)C)C(O)=C(C(N)=O)C(=O)[C@@]3(O)C(O)=C1C2=O` , give its reported MIC. 1

For the compound `CN(C)c1ccc(O)c2c1C[C@H]1C[C@H]3[C@H](N(C)C)C(O)=C(C(N)=O)C(=O)[C@@]3(O)C(O)=C1C2=O` , give its reported MIC. 128

====

System: K. pneumoniae NVT1001 strains with ESBL or AmpC β-lactamase plasmids
Assay: Etest MIC of β-lactams, OmpK35/36 loss, ΔramR and/or extended-spectrum β-lactamase and AmpC β-lactamase (Table 8)
Format: cell-based, Klebsiella pneumoniae
Conditions: Klebsiella pneumoniae, CTX-M-14 on pACYC177; WT (NVT1001); read-out: MIC
Consider the following compounds; for each one, report its MIC.
Reply with just the number (in µg/mL).

For the compound `CCO/N=C(\C(=O)N[C@@H]1C(=O)N2C(C(=O)[O-])=C(Sc3nc(-c4cc[n+](C)cc4)cs3)CS[C@H]12)c1nsc(N)n1` , give its reported MIC. 128

For the compound `C[C@@H](O)[C@H]1C(=O)N2C(C(=O)O)=C(S[C@@H]3CN[C@H](C(=O)N(C)C)C3)[C@H](C)[C@H]12` , give its reported MIC. 0.06

For the compound `C[C@H]1[C@H](NC(=O)/C(=N\OC(C)(C)C(=O)O)c2csc(N)n2)C(=O)N1S(=O)(=O)O` , give its reported MIC. 2

For the compound `CO/N=C(\C(=O)N[C@@H]1C(=O)N2C(C(=O)O)=C(COC(C)=O)CS[C@H]12)c1csc(N)n1` , give its reported MIC. 64

For the compound `CO[C@@]1(NC(=O)Cc2cccs2)C(=O)N2C(C(=O)O)=C(COC(N)=O)CS[C@@H]21` , give its reported MIC. 4

For the compound `C[C@@H](O)[C@H]1C(=O)N2C(C(=O)O)=C(SCCN=CN)C[C@H]12` , give its reported MIC. 0.5

====

System: K. pneumoniae NVT1001 gyrA/parC and gyrA/parC/ramR mutants and revertants
Test: Etest MIC of quinolones, gyrA/parC and gyrA/parC/ramR mutants and their revertants (Table 11)
Type: cell-based
Settings: Klebsiella pneumoniae, S83L/D87N/S80I::L83S/N87D/I80S revertant; read-out: MIC
reported.metric: MIC (µg/mL)
Reply with just the number (in µg/mL).

For the compound `CCn1cc(C(=O)O)c(=O)c2cc(F)c(N3CCNCC3)cc21` , give its reported MIC. 0.25

For the compound `CCn1cc(C(=O)O)c(=O)c2ccc(C)nc21` , give its reported MIC. 4

For the compound `C[C@H]1COc2c(N3CCN(C)CC3)c(F)cc3c(=O)c(C(=O)O)cn1c23` , give its reported MIC. 0.06

For the compound CC1COc2c(N3CCN(C)CC3)c(F)cc3c(=O)c(C(=O)O)cn1c23 (centres unmarked) , give its reported MIC. 0.25

For the compound `COc1c(N2C[C@@H]3CCCN[C@@H]3C2)c(F)cc2c(=O)c(C(=O)O)cn(C3CC3)c12` , give its reported MIC. 0.125

====

System: K. pneumoniae NVT1001 strains with ESBL or AmpC β-lactamase plasmids
Assay: Etest MIC of β-lactams, OmpK35/36 loss, ΔramR and/or extended-spectrum β-lactamase and AmpC β-lactamase (Table 8)
Type: cell-based, Klebsiella pneumoniae
Conditions: Klebsiella pneumoniae, CTX-M-15 on pACYC177; ΔramRΔ35/36 (ΔramRΔompK35/36 mutant)
Consider the following compounds; for each one, report its MIC.

For the compound `CCO/N=C(\C(=O)N[C@@H]1C(=O)N2C(C(=O)[O-])=C(Sc3nc(-c4cc[n+](C)cc4)cs3)CS[C@H]12)c1nsc(N)n1` , give its reported MIC. > 256 mg/L

For the compound `C[C@@H](O)[C@H]1C(=O)N2C(C(=O)O)=C(S[C@@H]3CN[C@H](C(=O)N(C)C)C3)[C@H](C)[C@H]12` , give its reported MIC. 4 mg/L

For the compound `C[C@H]1[C@H](NC(=O)/C(=N\OC(C)(C)C(=O)O)c2csc(N)n2)C(=O)N1S(=O)(=O)O` , give its reported MIC. > 256 mg/L

For the compound `C[C@@H](O)[C@H]1C(=O)N2C(C(=O)O)=C(S[C@@H]3CN[C@H](CNS(N)(=O)=O)C3)[C@H](C)[C@H]12` , give its reported MIC. 2 mg/L

For the compound `CO[C@@]1(NC(=O)Cc2cccs2)C(=O)N2C(C(=O)O)=C(COC(N)=O)CS[C@@H]21` , give its reported MIC. > 256 mg/L

For the compound `CC(C)(O/N=C(\C(=O)N[C@@H]1C(=O)N2C(C(=O)[O-])=C(C[n+]3ccccc3)CS[C@H]12)c1csc(N)n1)C(=O)O` , give its reported MIC. > 256 mg/L

For the compound `C[C@@H](O)[C@H]1C(=O)N2C(C(=O)O)=C(S[C@@H]3CN[C@H](C(=O)Nc4cccc(C(=O)O)c4)C3)[C@H](C)[C@H]12` , give its reported MIC. > 32 mg/L

For the compound `CO/N=C(\C(=O)N[C@@H]1C(=O)N2C(C(=O)O)=C(COC(N)=O)CS[C@H]12)c1ccco1` , give its reported MIC. > 256 mg/L

For the compound `C[C@@H](O)[C@H]1C(=O)N2C(C(=O)O)=C(SCCN=CN)C[C@H]12` , give its reported MIC. 2 mg/L

For the compound `CO/N=C(\C(=O)N[C@@H]1C(=O)N2C(C(=O)O)=C(COC(C)=O)CS[C@H]12)c1csc(N)n1` , give its reported MIC. > 256 mg/L

For the compound `CC(=O)OCC1=C(C(=O)O)N2C(=O)[C@@H](NC(=O)Cc3cccs3)[C@H]2SC1` , give its reported MIC. > 256 mg/L
